- Test system: Liver
- procedure_text: Drug uptake in Sprague-Dawley rat liver at 0.20 to 1.4 nmol/body, iv after 2 mins by gamma counting based PET imaging method
- Type: ADME, organism-based
- assay_conditions: in vivo
measured_property: Drug uptake (%ID)

NS(=O)(=O)c1ccc(-n2nc(C(F)(F)F)cc2-c2ccc([11C](=O)O)cc2)cc1 :: 35

Values were extracted from ChEMBL document CHEMBL1799929.
